# Tested on: Keng stiffgrass
# runDescription: Leaf piece damage test
# Format: in vivo
# Set-up: key: 4: The leaf completely dead; 3: Two third of the leaf withered; 2: One half of the leaf withered; 1: Only edge of the leaf withered; 0: Not damage at all
# experimentalParameters: 50 μg/mL, 4 days
# Protocol: Compounds 7, 14, 15, 16, 40, 45, 48 and 53 were dissolved individually in small amount of methanol, and diluted with distilled water to concentration of 50 μg/mL. Methanol water solution and pure water were used as control. A piece of 5 mm leaf was taken from the second leaf of weed sample and was treated with the solution three times. […] The measurement of the plant damage was calculated by the formula: Damage Index=Σ(damage level×number of plants)×100/4/number of plants in each treatment.

[
  {
    "compound": "CCCCCCC1NC(=O)C(C(C)=O)=C1O (stereo not shown) [Compound 16]",
    "targetSystem": "Keng stiffgrass",
    "Damage level": 3
  },
  {
    "compound": "CCCC(Cl)C1NC(=O)C(C(C)=O)=C1O (stereo not shown) [Compound 40]",
    "targetSystem": "Keng stiffgrass",
    "Damage level": 3
  },
  {
    "compound": "CCC(C)C1NC(=O)C(C(=O)CCF)=C1O (stereo not shown) [Compound 44]",
    "targetSystem": "Keng stiffgrass",
    "Damage level": 3
  },
  {
    "compound": "CCC(C)C1NC(=O)C(C(=O)CCc2cc(Cl)cc(Cl)c2)=C1O (stereo not shown) [Compound 48]",
    "targetSystem": "Keng stiffgrass",
    "Damage level": 4
  },
  {
    "compound": "CCCCC1NC(=O)C(C(C)=O)=C1O (stereo not shown) [Compound 14]",
    "targetSystem": "Keng stiffgrass",
    "Damage level": 3
  },
  {
    "compound": "CCCC(C#N)C1NC(=O)C(=C(C)O)C1=O (stereo not shown) [Compound 53]",
    "targetSystem": "Keng stiffgrass",
    "Damage level": 4
  },
  {
    "compound": "CCCCCC1NC(=O)C(C(C)=O)=C1O (stereo not shown) [Compound 15]",
    "targetSystem": "Keng stiffgrass",
    "Damage level": 3
  }
]

---

# Damage level per record follows
# System: Crisium setosum
# runDescription: Leaf piece damage test
# Assay type: in vivo
# Set-up: key: 4: The leaf completely dead; 3: Two third of the leaf withered; 2: One half of the leaf withered; 1: Only edge of the leaf withered; 0: Not damage at all
# experimentalParameters: 50 μg/mL, 4 days

[
  {
    "compound": "CCCC(Cl)C1NC(=O)C(C(C)=O)=C1O (stereo not shown)",
    "Damage level": 3
  },
  {
    "compound": "CCCCC1NC(=O)C(C(C)=O)=C1O (stereo not shown)",
    "Damage level": 3
  },
  {
    "compound": "CCCCCC1NC(=O)C(C(C)=O)=C1O (stereo not shown)",
    "Damage level": 3
  },
  {
    "compound": "CCC(C)C1NC(=O)C(C(=O)CCc2cc(Cl)cc(Cl)c2)=C1O (stereo not shown)",
    "Damage level": 4
  },
  {
    "compound": "CCCCCCC1NC(=O)C(C(C)=O)=C1O (stereo not shown)",
    "Damage level": 3
  },
  {
    "compound": "CCCC(C#N)C1NC(=O)C(=C(C)O)C1=O (stereo not shown)",
    "Damage level": 4
  },
  {
    "compound": "CCC(C)C1NC(=O)C(C(=O)CCF)=C1O (stereo not shown)",
    "Damage level": 3
  }
]

---

# Tested on: Galeopsis bifida
# runDescription: Leaf piece damage test
# Format: in vivo
# Parameters: key: 4: The leaf completely dead; 3: Two third of the leaf withered; 2: One half of the leaf withered; 1: Only edge of the leaf withered; 0: Not damage at all
# experimentalParameters: 50 μg/mL, 4 days
# Damage level per record follows

[
  {
    "molecule": "CCC(C)C1NC(=O)C(C(=O)CCF)=C1O (stereo not shown) [Compound 44]",
    "Damage level": 3
  },
  {
    "molecule": "CCCCC1NC(=O)C(C(C)=O)=C1O (stereo not shown) [Compound 14]",
    "Damage level": 2
  },
  {
    "molecule": "CCCCCCC1NC(=O)C(C(C)=O)=C1O (stereo not shown) [Compound 16]",
    "Damage level": 2
  },
  {
    "molecule": "CCC(C)C1NC(=O)C(C(=O)CCc2cc(Cl)cc(Cl)c2)=C1O (stereo not shown) [Compound 48]",
    "Damage level": 2
  },
  {
    "molecule": "CCCC(Cl)C1NC(=O)C(C(C)=O)=C1O (stereo not shown) [Compound 40]",
    "Damage level": 3
  },
  {
    "molecule": "CCCC(C#N)C1NC(=O)C(=C(C)O)C1=O (stereo not shown) [Compound 53]",
    "Damage level": 3
  },
  {
    "molecule": "CCCCCC1NC(=O)C(C(C)=O)=C1O (stereo not shown) [Compound 15]",
    "Damage level": 2
  }
]

---

# Tested on: Big Bristlegass
# runDescription: Leaf piece damage test
# Format: in vivo
# Design: key: 4: The leaf completely dead; 3: Two third of the leaf withered; 2: One half of the leaf withered; 1: Only edge of the leaf withered; 0: Not damage at all
# experimentalParameters: 50 μg/mL, 4 days
# Damage level per record follows

[
  {
    "compound": "CCC(C)C1NC(=O)C(C(=O)CCc2cc(Cl)cc(Cl)c2)=C1O (stereo not shown)",
    "targetSystem": "Big Bristlegass",
    "Damage level": 3
  },
  {
    "compound": "CCCCCCC1NC(=O)C(C(C)=O)=C1O (stereo not shown)",
    "targetSystem": "Big Bristlegass",
    "Damage level": 3
  },
  {
    "compound": "CCCC(C#N)C1NC(=O)C(=C(C)O)C1=O (stereo not shown)",
    "targetSystem": "Big Bristlegass",
    "Damage level": 3
  },
  {
    "compound": "CCCCCC1NC(=O)C(C(C)=O)=C1O (stereo not shown)",
    "targetSystem": "Big Bristlegass",
    "Damage level": 2
  },
  {
    "compound": "CCCCC1NC(=O)C(C(C)=O)=C1O (stereo not shown)",
    "targetSystem": "Big Bristlegass",
    "Damage level": 2
  },
  {
    "compound": "CCC(C)C1NC(=O)C(C(=O)CCF)=C1O (stereo not shown)",
    "targetSystem": "Big Bristlegass",
    "Damage level": 2
  },
  {
    "compound": "CCCC(Cl)C1NC(=O)C(C(C)=O)=C1O (stereo not shown)",
    "targetSystem": "Big Bristlegass",
    "Damage level": 3
  }
]

---

# Damage level per record follows
# Test system: Redroot pigweed (Amaramthus retroflexus)
# runDescription: Leaf piece damage test
# Type: in vivo
# Parameters: key: 4: The leaf completely dead; 3: Two third of the leaf withered; 2: One half of the leaf withered; 1: Only edge of the leaf withered; 0: Not damage at all
# experimentalParameters: 50 μg/mL, 4 days

[
  {
    "compound": "CCC(C)C1NC(=O)C(C(=O)CCF)=C1O (stereo not shown)",
    "Damage level": 2
  },
  {
    "compound": "CCCCCC1NC(=O)C(C(C)=O)=C1O (stereo not shown)",
    "Damage level": 2
  },
  {
    "compound": "CCCC(C#N)C1NC(=O)C(=C(C)O)C1=O (stereo not shown)",
    "Damage level": 3
  },
  {
    "compound": "CCC(C)C1NC(=O)C(C(=O)CCc2cc(Cl)cc(Cl)c2)=C1O (stereo not shown)",
    "Damage level": 2
  },
  {
    "compound": "CCCCCCC1NC(=O)C(C(C)=O)=C1O (stereo not shown)",
    "Damage level": 3
  },
  {
    "compound": "CCCCC1NC(=O)C(C(C)=O)=C1O (stereo not shown)",
    "Damage level": 2
  },
  {
    "compound": "CCCC(Cl)C1NC(=O)C(C(C)=O)=C1O (stereo not shown)",
    "Damage level": 3
  }
]

---

# System: Equal alopecurus
# runDescription: Leaf piece damage test
# Format: in vivo
# Parameters: key: 4: The leaf completely dead; 3: Two third of the leaf withered; 2: One half of the leaf withered; 1: Only edge of the leaf withered; 0: Not damage at all
# experimentalParameters: 50 μg/mL, 4 days
# Damage level per record follows

[
  {
    "molecule": "CCC(C)C1NC(=O)C(C(=O)CCc2cc(Cl)cc(Cl)c2)=C1O (stereo not shown)",
    "Damage level": 4
  },
  {
    "molecule": "CCCCCCC1NC(=O)C(C(C)=O)=C1O (stereo not shown)",
    "Damage level": 3
  },
  {
    "molecule": "CCCC(C#N)C1NC(=O)C(=C(C)O)C1=O (stereo not shown)",
    "Damage level": 4
  },
  {
    "molecule": "CCCC(Cl)C1NC(=O)C(C(C)=O)=C1O (stereo not shown)",
    "Damage level": 3
  },
  {
    "molecule": "CCCCCC1NC(=O)C(C(C)=O)=C1O (stereo not shown)",
    "Damage level": 3
  },
  {
    "molecule": "CCCCC1NC(=O)C(C(C)=O)=C1O (stereo not shown)",
    "Damage level": 3
  },
  {
    "molecule": "CCC(C)C1NC(=O)C(C(=O)CCF)=C1O (stereo not shown)",
    "Damage level": 3
  }
]
